The origin of these recorded values is paper PMC9266353.

- target.desc: human soluble ENPP1 (Homo sapiens)
- Construct: addition of 20 ng of human soluble ENPP1; His; made in house; host or cells: 293-F cells (protein harvested from the medium)
- Sequence (P22413 103-925 limits assumed): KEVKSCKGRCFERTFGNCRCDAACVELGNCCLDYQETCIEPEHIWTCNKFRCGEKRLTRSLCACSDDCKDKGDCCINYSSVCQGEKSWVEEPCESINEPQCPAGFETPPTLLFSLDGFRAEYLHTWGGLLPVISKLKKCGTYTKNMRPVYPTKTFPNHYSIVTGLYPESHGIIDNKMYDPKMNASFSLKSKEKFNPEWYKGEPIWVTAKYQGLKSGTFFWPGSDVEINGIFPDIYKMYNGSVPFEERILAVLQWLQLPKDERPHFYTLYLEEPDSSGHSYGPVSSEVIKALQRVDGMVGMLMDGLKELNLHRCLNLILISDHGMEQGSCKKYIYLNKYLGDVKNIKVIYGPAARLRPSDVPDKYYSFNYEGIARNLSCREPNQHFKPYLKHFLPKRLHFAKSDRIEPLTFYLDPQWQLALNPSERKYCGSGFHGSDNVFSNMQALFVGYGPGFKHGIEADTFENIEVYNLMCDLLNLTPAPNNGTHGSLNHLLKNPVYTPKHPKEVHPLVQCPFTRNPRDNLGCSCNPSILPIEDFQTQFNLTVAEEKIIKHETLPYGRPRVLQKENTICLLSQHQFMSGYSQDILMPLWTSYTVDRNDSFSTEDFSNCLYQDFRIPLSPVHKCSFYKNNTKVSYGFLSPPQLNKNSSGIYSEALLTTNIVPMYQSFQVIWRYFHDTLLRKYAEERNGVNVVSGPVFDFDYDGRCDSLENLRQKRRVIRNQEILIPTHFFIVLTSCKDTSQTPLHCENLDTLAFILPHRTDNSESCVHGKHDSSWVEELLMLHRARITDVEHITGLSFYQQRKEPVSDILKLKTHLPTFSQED
- experimental.details: Enzyme-based ENPP1 inhibitory assay (pNP-TMP substrate, 405 nm)
- Type: biochemical
- recorded.conditions: pH 9, 10 μM compound, 200 μM pNP-TMP, pH 9.0, 37 °C
measured.parameter: inhibition at 10 µM (%)

1) COc1ccc2nc(CSc3nc4nc(OC)ccc4[nH]3)[nH]c(=O)c2c1 : 76.5
2) COc1ccc2[nH]c(SCc3nc4c(Br)cccc4c(=O)[nH]3)nc2n1 : 55.5
3) COc1ccc2[nH]c(SCc3nc4cc(Cl)ccc4c(=O)[nH]3)nc2n1 : 52.9
4) COc1ccc2[nH]c(SCc3nc4cc(C)ccc4c(=O)[nH]3)nc2n1 : 75.4
5) COc1ccc2[nH]c(SCc3nc4c(C)cccc4c(=O)[nH]3)nc2n1 : 72.7
6) COc1ccc2[nH]c(SCc3nc4cccc(F)c4c(=O)[nH]3)nc2n1 : 72.2

---

- Test system: 4T1 cell line
- experimental.details: Cell proliferation assay (CCK8), 4T1
- Assay type: cell-based
- recorded.conditions: CCK8, 48 h; read-out: IC50 against 4T1 cell line
- Description: In total, 1 × 10^4 cells (4T1, LO2 and 293T) were plated in 96-well flat-bottom plates in a final volume of 200 μL DMEM supplemented with 10% FBS and cultured for 24 h. Next, the culture was replaced by fresh DMEM medium (200 μL) and the compound (10 μL) was added. After forty-eight hours, the medium was replaced by PBS (180 μL) mixture with CCK8 solution (20 μL) in each well. Cell viability was evaluated by testing the OD450 nm. The data were processed by GraphPad Prism 7.0 [45, 46].
measured.parameter: IC50 (µM)

1. N.N.[Cl][Pt][Cl] [Cisplatin, cisplatin, reference compound] : 3.2
